Tested on: Human immunodeficiency virus 1
Assay: Antiviral activity in long term culture of HIV1 KK infected PBMCs after 43 passages assessed as p24 antigen levels
Assay type: functional, organism-based
Conditions: Human immunodeficiency virus 1, KK
reported endpoint: IC50 (nM)
The response must be a number in nM with no trailing unit.

Field IC50 (entry CCCCOCCOc1ccc(-c2ccc3c(c2)/C=C(/C(=O)Nc2ccc([S@@+]([O-])Cc4cncn4CCC)cc2)CCCN3CC(C)C)cc1.CS(=O)(=O)O [CENICRIVIROC MESYLATE] ) reads 0.2

---

Measured pIC50 accompanies every entry in the list below.
System: Human immunodeficiency virus 1
Experiment: Antiviral activity in long term culture of HIV1 KK infected PBMCs after 67 passages assessed as p24 antigen levels at escalating concentrations
Format: functional, organism-based
Details: Human immunodeficiency virus 1, KK
Recall that pIC50 is obtained by taking minus log10 of the concentration measured in molar.

smiles input	target entity	reported endpoint	reading
CC(=O)N1CCC(C(=O)N(CCCN2CCC(Cc3ccc(C(N)=O)cc3)CC2)c2ccc(C)c(Cl)c2)CC1	Human immunodeficiency virus 1	pIC50	8.89

Human immunodeficiency virus 1 assay, compound Cc1ccc(-c2ccc3c(c2)C=C(C(=O)Nc2ccc(C[N+](C)(C)C4CCOCC4)cc2)CCC3)cc1.[Cl-] , recorded pIC50 = 7.11
